System: CCRF-CEM
measurement_description: NCI tumour cell line growth inhibition, 48 h
Calls of active or inactive are those of the source. No stated cut-off is given here; in the data, active = GI50 up to about 1.1 µM and inactive = higher.
Answer with one of the outcomes active, inactive

A selection of reference data follows.
- c1ccc(SC(Sc2ccccc2)=C2CCC2)cc1: inactive
- CC1COS(=O)N1c1ccccc1 (stereo not given): inactive
- COC1/C=C/C(C)C(C(C)C(OC)C(C)CCC(=O)C(C)C(C/C=C/N(C)C=O)OC)OC(=O)/C=C/C=C(\C)CC(OC)CC2=CC(=O)O[C@H](C2)C(C)C(OC)CC(OC)/C=C/C(C)C(OC)C1 (stereo not given in full): active
- COC(=O)C1(C(=O)OC)Cc2ccc(C)cc2C2=C1C(=O)c1ccccc1C2=O: inactive
- O=[N+]([O-])c1ccc(OP(=O)(O)OCC2OC(CP(=O)(O)O)C(O)C2O)cc1 (stereo not given): inactive

Exercise: For CN(C)CCS/C(=N\c1ccccc1)n1cccc1 , what call appears in the results of this test?
Key: inactive

Exercise: Just curious, what result did O=c1[nH]c(=O)n(C2CC(O)C(CO)O2)cc1OCc1ccccc1 (stereo not given) get here?
Key: inactive

* * *

GI50 overview
Test system: SF-295
measurement_description: NCI tumour cell line growth inhibition, 48 h
Calls of active or inactive are those of the source. Rule as the data show it: active = GI50 up to about 1.1 µM and inactive = higher.

* CCCCCNC(=O)C1C(=O)N(CCCCC)C(=O)/C1=N\N (stereo not given) | 30.5 µM (inactive)
* CCCCCCCCCCCCCCCC(=O)NC1CCc2cc(O)c(O)c(O)c2-c2ccc(SC)c(=O)cc21 (stereo not given) | 3.7 µM (inactive)
* CC1=NN(C(=O)Nc2ccccc2)C(=O)C2CCC(=O)N12 (stereo not given) | > 100 µM (inactive)
* OC(CC(CC(O)(C(F)(F)F)C(F)(F)F)=NN=C(CC(O)(C(F)(F)F)C(F)(F)F)CC(O)(C(F)(F)F)C(F)(F)F)(C(F)(F)F)C(F)(F)F | > 10 µM (inactive)

Proceeding to the next molecule to report its GI50.
Exercise: Query: GI50; subject: Nc1nc(=O)c(/N=N/c2ccccc2)c(C(=O)O)[nH]1
Key: 56.6 µM (inactive)

* * *

System: HL-60
measurement_description: NCI tumour cell line growth inhibition, 48 h
Activity calls are given as the source filed them. No stated cut-off is given here; in the data, active = GI50 up to about 1.1 µM and inactive = higher.
measurement_type: GI50

Before answering, review these 5 worked examples.
* COc1cc(CNc2ccc(C)cc2)cc(OC)c1OC | 0.0948 µM (active)
* Cc1cc(N(CCC#N)CCC#N)ccc1/C=C\C(=O)Nc1ccccc1 | 26 µM (inactive)
* Cc1ccc([N+](=O)[O-])cc1S(=O)(=O)Nc1ccc(C2=NN(C(=O)c3ccccc3)C(c3ccccc3O)C2)cc1 (stereo unspecified) | 18.6 µM (inactive)
* O=C1NC(=O)C(=Cc2c3ccccc3cc3ccccc23)C(=O)N1 | 44.7 µM (inactive)
* C=C(Cl)/C(=C\Cl)CCC(Cl)C(C)C (stereo unspecified) | 56.2 µM (inactive)

Exercise: Entry Cc1nnc2sc(-c3ccc([N+](=O)[O-])o3)nn12 has what GI50?
Key: 2.47 µM (inactive)

Exercise: Item CC1COS(=O)N1c1ccccc1 (stereo unspecified) has what recorded GI50?
Key: > 100 µM (inactive)

Exercise: What value of GI50 has been reported for the following compound? O=C(O/N=C1/CCCC/C1=C\c1ccccc1)c1ccccc1
Key: 20.2 µM (inactive)

Exercise: Value lookup for GI50; key = O=CC(O)C(O)C(O)C1CNC(=S)O1 (stereo unspecified)
Key: > 100 µM (inactive)

Exercise: Looking for the measured GI50 of COc1ccccc1NC(=O)/C(=C/c1ccccc1)C(C)=O , can you help?
Key: 23.6 µM (inactive)

Exercise: Endpoint output: GI50 of O=c1[nH]nc(-c2ccccc2)n1/N=C/c1ccc([N+](=O)[O-])o1 . Value?
Key: 8.89 µM (inactive)

* * *

System: COLO 205
measurement_description: NCI tumour cell line growth inhibition, 48 h
Calls of active or inactive are those of the source. Cut-off read from the data, not from the text of the source: active = GI50 up to about 1.1 µM and inactive = higher.
Choose one outcome from this list and give only that: Y (active), N (inactive)

- CC(=O)OCC(OC(C)=O)C(OC(C)=O)C(OC(C)=O)C(=O)CNn1c(-c2ccc(C)cc2)nc2ccccc2c1=O (stereo unspecified): N
- C=C(Cl)/C(=C\Cl)CCC(Cl)C(C)C (stereo unspecified): N
- Cc1cc(N(CCCCl)CCCCl)ccc1/C=N/c1cccc(Cl)c1: N

Exercise: Any idea what this test logged for CCOC(=O)c1c(NC(=O)c2ccccc2)sc2c1CCC2 ?
Key: N

Exercise: What call does the record list for Clc1cc(Cl)c2ns[s+]c2c1Cl ?
Key: N

Exercise: Short answer needed: outcome of this test for Cc1ccc2c(c1)-c1nc(N)c(C#N)c(-c3ccc(Cl)cc3)c1CCS2(=O)=O ?
Key: N

Exercise: What did the test return for CCCCCCCCCCCCCCCC(=O)NCC(COP(=O)([O-])OCC[N+](C)(C)C)OCC (stereo unspecified) ?
Key: N

Exercise: Record lookup: outcome of this test for N#Cc1ccc(Sc2nc3ccccc3[nH]2)cc1 ?
Key: N

Exercise: Dear all, I need the recorded test outcome for NCCc1ccc2oc3cc(=O)c4ccccc4c-3nc2c1 , thank you.
Key: Y

Exercise: Check the results log: what was the call for COc1cccc(C2c3cc4c(cc3OC3COC(=O)C32)OCO4)c1OC (stereo unspecified) ?
Key: N

Exercise: Entry COC(=O)c1sc(=S)sc1SCc1ccc(CSc2sc(=S)sc2C(=O)OC)cc1 : call = ?
Key: N

* * *

Test system: HT-29
measurement_description: NCI tumour cell line growth inhibition, 48 h
Active and inactive are the calls of the source. Rule as the data show it: active = GI50 up to about 1.1 µM and inactive = higher.
measurement_type: GI50

Below: 5 compounds and their reported GI50.
- Cn1c(N/N=C/c2ccccc2)nc(-c2ccc3c(c2)OCO3)c(C#N)c1=O: > 100 µM (inactive)
- CC(C)=C=CC(C)(C)NS(=O)(=O)NC(C)(C)C=C=C(C)C: 75.5 µM (inactive)
- CSc1nc(SC)c2c(C#N)n[nH]c2n1: > 100 µM (inactive)
- CCN(CCCl)c1ccc(NC(=O)c2cc(C(=O)NCCN(C)C)cc(C(=O)Nc3ccc(N(CC)CCCl)cc3)c2)cc1: 1.57 µM (inactive)
- COc1ccc(C(=O)C(CC2C(=O)NC(=O)NC2=O)c2ccc(OC)cc2)cc1 (configuration not stated): > 100 µM (inactive)

Exercise: Record [N-]=[N+]=NC1C(O)C(CO)OC1n1ccc(N)nc1=O (configuration not stated) : what is its GI50 with HT-29?
Key: 204 µM (inactive)

Exercise: I'm curious: which GI50 was measured for COc1ccc2c(Cl)cc(NC(=S)Nc3ccccc3)nc2c1 tested on HT-29?
Key: 22.4 µM (inactive)

Exercise: Given the entry CC1(C)CC2C=C(C=O)C3(C=O)CC3(C)C2C1 (configuration not stated) , what GI50 was observed with HT-29?
Key: 1.41 µM (inactive)

Exercise: Please tell me: GI50 of CCOC(=O)C1=C(C)Nc2ccccc2S1 , system HT-29?
Key: > 100 µM (inactive)

Exercise: Checklist item: GI50 tested on HT-29, entry O=C(CCCn1ccnc1[N+](=O)[O-])NCCn1ccnc1 , value?
Key: > 100 µM (inactive)

Exercise: Give recorded GI50 with HT-29 for the following compound: COc1cc(S(=O)(=O)Nc2nc(-c3ccc(N4C(=O)/C(=C\c5cccs5)N=C4c4ccccc4)cc3)cs2)ccc1Cl
Key: > 100 µM (inactive)

Exercise: What measured GI50 is associated with CCN1c2ccccc2C(C(SC)S(=O)(=O)c2ccc(C)cc2)c2c1[nH]c(=O)n(C)c2=O (configuration not stated) on HT-29?
Key: > 100 µM (inactive)

Exercise: Query the reported GI50 for HT-29; item: Cc1cc(C)nc(NS(=O)(=O)c2ccc(NC(=O)c3ccc(Cl)c4c(Nc5ccc(S(=O)(=O)Nc6cc(C)on6)cc5)c5ccccc5nc34)cc2)n1
Key: 19.5 µM (inactive)

Exercise: Identify the measured GI50 of CC1(CNCc2ccccc2)CC(CCc2ccccc2)N(C(=O)c2ccc([N+](=O)[O-])cc2)C1Cc1ccc(O)cc1 (configuration not stated) for HT-29.
Key: 5.65 µM (inactive)

Exercise: Item: CCC12C=CCN(CCc3c([nH]c4ccccc34)/C=C\1)C2 (configuration not stated) Test system: HT-29 Read-out: GI50 Value: ?
Key: > 100 µM (inactive)

Exercise: Provide value of GI50 for this record tested with HT-29: Cn1c2ccccc2c2ccc3c(c21)C(=O)c1ccc2c4ccccc4n(C)c2c1C3=O
Key: > 100 µM (inactive)

Exercise: Which GI50 is reported with HT-29 for this entry: COc1cc2c(cc1OC)C1CCc3ccccc3CN1CC2 (configuration not stated) ?
Key: > 100 µM (inactive)

* * *

Tested on: HCT-116
measurement_description: NCI tumour cell line growth inhibition, 48 h
Active and inactive are the calls of the source. No stated cut-off is given here; in the data, active = GI50 up to about 1.1 µM and inactive = higher.
Listing: GI50 of selected compounds

* c1ccc2c(c1)nc1n2sc2nc3ccccc3n21 | > 100 µM (inactive)
* Cc1nnc2sc(-c3ccc([N+](=O)[O-])o3)nn12 | 6.46 µM (inactive)
* COC(=O)C1(Cc2ccccc2C)Cc2ccc(C)cc2C1=O (stereo not drawn) | 27.2 µM (inactive)
* CC(C)OP(=O)(OC(C)C)C(C)(C)O | > 100 µM (inactive)
* Cc1cc(=O)oc2c(CNC(C(=O)O)C(C)O)c(O)ccc12 (stereo not drawn) | > 100 µM (inactive)
* COC(=O)Cn1cnc2c(Cl)nc(Nc3ccccc3)nc21 | 35.5 µM (inactive)
* O=C(O/N=C1/CCCC/C1=C\c1ccccc1)c1ccccc1 | 34 µM (inactive)
* COC1=NC(NC2OCC(O)C(O)C2O)=C(NC(C)=O)CN1C (stereo not drawn) | > 100 µM (inactive)

Exercise: GI50 for Clc1cc(Cl)c2ns[s+]c2c1Cl ?
Key: > 100 µM (inactive)

Exercise: Value lookup for GI50; key = C=CCc1cc(-c2cc(CC=C)c(O)c(CN(CCCl)CCCl)c2)cc(CN(CCCl)CCCl)c1O
Key: 11.1 µM (inactive)

Exercise: Data request, read-out GI50, for COc1cc(/C=C2\C(=O)N(c3ccc(NC(C)=O)cc3)C(c3ccccc3)S2(=O)=O)cc(OC)c1OC (stereo not drawn)
Key: > 100 µM (inactive)

Exercise: Item under review: CCOP(=O)(/C=C\n1ccc(N)nc1=O)OCC . Reported GI50?
Key: > 100 µM (inactive)

Exercise: For the compound shown here, COc1nc(NC2OC(COC(C)=O)C(OC(C)=O)C(OC(C)=O)C2OC(C)=O)c(/N=C/C=N/c2c(NC3OC(COC(C)=O)C(OC(C)=O)C(OC(C)=O)C3OC(C)=O)nc(OC)[nH]c2=O)c(=O)[nH]1 (stereo not drawn) , give the reported GI50.
Key: > 100 µM (inactive)
